Molecular target: FKBP51 / FRB ternary complex (Homo sapiens (Human), UniProt P42345+Q13451)
Test: SPR assay to characterize ternary complex formation with FKBP51 (FRB binding to rapalog-saturated FKBP51)
Conditions: FRB dilutions with 100 nM rapalog on immobilized FKBP51
Recorded Kd, one value per entry.

# molecule, experimental.system, Kd
records = [
    ("COC1CC(CC(C)C2CC(=O)C(C)C=C(C)C(O)C(OC)C(=O)C(C)CC(C)C=CC=CC=C(C)C(OCC3CC3)CC3CCC(C)C(O)(O3)C(=O)C(=O)N3CCCCC3C(=O)O2)CCC1O (centres unmarked) [Compound 39]", "FKBP51 / FRB ternary complex (Homo sapiens (Human), UniProt P42345+Q13451)", "> 800 nM"),
]

For reference, reported Kd for COCCOCCS(=O)(=O)N[C@H]1C[C@@H]2CC[C@@H](C)[C@@](O)(O2)C(=O)C(=O)N2CCCC[C@H]2C(=O)O[C@H]([C@H](C)C[C@@H]2CC[C@@H](O)[C@H](OC)C2)CC(=O)[C@H](C)/C=C(\C)[C@@H](O)[C@@H](OC)C(=O)[C@H](C)C[C@H](C)/C=C/C=C/C=C/1C [Compound 9] stands at < 300 nM

====

Molecular target: mTORC1 (Homo sapiens (Human), UniProt P42345+P62942)
Test: mTORC1 inhibition, AlphaLISA of Phospho-p70 S6 kinase (p70S6K pT389) in PC-3 cells
Conditions: inhibition of p70S6K pT389 levels
pIC50: −log10 of the molar value.
compounds and their reported pIC50

# compound, pIC50
records = [
    ("CCOC(=O)COC1CCC(CC(C)C2CC(=O)C(C)C=C(C)C(O)C(OC)C(=O)C(C)CC(C)C=CC=CC=C(C)C(OCC3CCC3)CC3CCC(C)C(O)(O3)C(=O)C(=O)N3CCCCC3C(=O)O2)CC1OC (centres unmarked)", "< 9.10"),
]

From here, focus on the item given below.
Value (pIC50, mTORC1 (Homo sapiens (Human), UniProt P42345+P62942)) for record CO[C@@H]1C[C@H](C[C@@H](C)[C@@H]2CC(=O)[C@H](C)/C=C(\C)[C@@H](O)[C@@H](OC)C(=O)[C@H](C)C[C@H](C)/C=C/C=C/C=C(\C)[C@@H](OCCC3CCS(=O)(=O)C3)C[C@@H]3CC[C@@H](C)[C@@](O)(O3)C(=O)C(=O)N3CCCC[C@H]3C(=O)O2)CC[C@H]1O (some centres unmarked) = < 9.10

====

Target: UniProtKB Q13451
Sequence (Q13451 whole entry): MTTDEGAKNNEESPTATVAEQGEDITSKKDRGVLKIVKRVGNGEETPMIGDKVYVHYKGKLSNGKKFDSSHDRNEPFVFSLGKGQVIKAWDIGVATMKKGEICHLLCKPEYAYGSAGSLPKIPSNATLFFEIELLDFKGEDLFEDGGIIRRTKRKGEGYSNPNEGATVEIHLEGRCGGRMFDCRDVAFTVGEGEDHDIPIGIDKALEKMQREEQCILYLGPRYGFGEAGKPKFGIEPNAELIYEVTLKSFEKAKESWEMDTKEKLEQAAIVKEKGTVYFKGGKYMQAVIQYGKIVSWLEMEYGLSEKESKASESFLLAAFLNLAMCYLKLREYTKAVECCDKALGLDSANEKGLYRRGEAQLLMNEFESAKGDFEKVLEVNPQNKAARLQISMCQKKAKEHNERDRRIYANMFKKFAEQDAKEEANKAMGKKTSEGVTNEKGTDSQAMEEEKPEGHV
pKd: −log10 of the molar value.
value.kind: pKd

# compound, experimental.system, value.kind, value.observed
data = [
    ("COCCO[C@H]1C[C@@H]2CC[C@@H](C)[C@@](O)(O2)C(=O)C(=O)N2CCCC[C@H]2C(=O)O[C@H]([C@H](C)C[C@@H]2CC[C@@H](OCCCS(C)(=O)=O)[C@H](OC)C2)CC(=O)[C@H](C)/C=C(\\C)[C@@H](O)[C@@H](OC)C(=O)[C@H](C)C[C@H](C)/C=C/C=C/C=C/1C [Compound 61]", "UniProtKB Q13451", "pKd", "< 7.00"),
]

According to the records, this compound CO[C@@H]1C[C@H](C[C@@H](C)[C@@H]2CC(=O)[C@H](C)/C=C(\C)[C@@H](O)[C@@H](OC)C(=O)[C@H](C)C[C@H](C)/C=C/C=C/C=C(\C)[C@@H](NS(=O)(=O)CC3CCOCC3)C[C@@H]3CC[C@@H](C)[C@@](O)(O3)C(=O)C(=O)N3CCCC[C@H]3C(=O)O2)CC[C@H]1O [Compound 6] displays pKd of > 8.00

Looking up CCOC(=O)COC1CCC(CC(C)C2CC(=O)C(C)C=C(C)C(O)C(OC)C(=O)C(C)CC(C)C=CC=CC=C(C)C(OCCOC)CC3CCC(C)C(O)(O3)C(=O)C(=O)N3CCCCC3C(=O)O2)CC1OC (stereo not shown) [Compound 56] , I found its pKd recorded as < 7.00

The measured pKd associated with COC1CC(CC(C)C2CC(=O)C(C)C=C(C)C(O)C(OC)C(=O)C(C)CC(C)C=CC=CC=C(C)C(OCC3CC3)CC3CCC(C)C(O)(O3)C(=O)C(=O)N3CCCCC3C(=O)O2)CCC1O (stereo not shown) [Compound 39] reads < 7.00
